experiment: Salt screen: XRPD of isolated solids after drying at 40° C. and at 40° C./75% RH; assay type: physicochemical; details: after 40° C. drying, dried at 40° C./75% RH for about 24 h; label = form after 40° C. drying
Marks after values point to notes of the source that are not given here.
assay_readout: XRPD after drying at 40° C./75% RH

molecule: CC(=O)N(C)C1(c2ccccc2)CCN(CCC[C@]2(c3ccc(Cl)c(Cl)c3)CCCN(C(=O)c3ccccc3)C2)CC1.CS(=O)(=O)O [osanetant methanesulfonic acid Form 2]
observed_value: Amorphous

molecule: CC(=O)N(C)C1(c2ccccc2)CCN(CCC[C@]2(c3ccc(Cl)c(Cl)c3)CCCN(C(=O)c3ccccc3)C2)CC1.CS(=O)(=O)O [osanetant methanesulfonic acid Form 1]
observed_value: Amorphous

----------
test: Salt screen: XRPD of isolated solids after drying at 40° C. and at 40° C./75% RH; assay type: physicochemical; conditions: isolated solids dried at 40° C. for about 24 h; label = wet form
assay_readout: XRPD after drying at 40° C.

molecule: CC(=O)N(C)C1(c2ccccc2)CCN(CCC[C@]2(c3ccc(Cl)c(Cl)c3)CCCN(C(=O)c3ccccc3)C2)CC1.O=P(O)(O)O [osanetant phosphoric acid Form 1]
observed_value: Form 1
--
molecule: CC(=O)N(C)C1(c2ccccc2)CCN(CCC[C@]2(c3ccc(Cl)c(Cl)c3)CCCN(C(=O)c3ccccc3)C2)CC1.O=P(O)(O)O [osanetant phosphoric acid Form 3]
observed_value: Form 3
--
molecule: CC(=O)N(C)C1(c2ccccc2)CCN(CCC[C@]2(c3ccc(Cl)c(Cl)c3)CCCN(C(=O)c3ccccc3)C2)CC1.CS(=O)(=O)O [osanetant methanesulfonic acid Form 1]
observed_value: Form 1
--
molecule: CC(=O)N(C)C1(c2ccccc2)CCN(CCC[C@]2(c3ccc(Cl)c(Cl)c3)CCCN(C(=O)c3ccccc3)C2)CC1.O=S(=O)(O)c1ccccc1 [osanetant benzenesulfonic acid Form 3]
observed_value: Form 3
--
molecule: CC(=O)N(C)C1(c2ccccc2)CCN(CCC[C@]2(c3ccc(Cl)c(Cl)c3)CCCN(C(=O)c3ccccc3)C2)CC1.CCS(=O)(=O)O [osanetant ethanesulfonic acid Form 1]
observed_value: Form 2
--
molecule: CC(=O)N(C)C1(c2ccccc2)CCN(CCC[C@]2(c3ccc(Cl)c(Cl)c3)CCCN(C(=O)c3ccccc3)C2)CC1.O=C(O)C(O)C(O)C(=O)O [osanetant L-tartaric acid Form 1]
observed_value: no change

Consider the molecule shown here: CC(=O)N(C)C1(c2ccccc2)CCN(CCCC2(c3ccc(Cl)c(Cl)c3)CCCN(C(=O)c3ccccc3)C2)CC1.O=C(O)C(O)C(O)C(=O)O [osanetant L-tartaric acid Form 2] What is its recorded XRPD after drying at 40° C.?
no change

Consider the molecule shown here: CC(=O)N(C)C1(c2ccccc2)CCN(CCC[C@]2(c3ccc(Cl)c(Cl)c3)CCCN(C(=O)c3ccccc3)C2)CC1.O=S(=O)(O)c1ccccc1 [osanetant benzenesulfonic acid Form 1] What is its recorded XRPD after drying at 40° C.?
Form 1

Consider the molecule shown here: CC(=O)N(C)C1(c2ccccc2)CCN(CCC[C@]2(c3ccc(Cl)c(Cl)c3)CCCN(C(=O)c3ccccc3)C2)CC1.O=S(=O)(O)O [osanetant sulfuric acid Form 1] What is its recorded XRPD after drying at 40° C.?
Form 2

Consider the molecule shown here: CC(=O)N(C)C1(c2ccccc2)CCN(CCC[C@]2(c3ccc(Cl)c(Cl)c3)CCCN(C(=O)c3ccccc3)C2)CC1.CS(=O)(=O)O [osanetant methanesulfonic acid Form 2] What is its recorded XRPD after drying at 40° C.?
Form 2

Consider the molecule shown here: CC(=O)N(C)C1(c2ccccc2)CCN(CCC[C@]2(c3ccc(Cl)c(Cl)c3)CCCN(C(=O)c3ccccc3)C2)CC1.O=C(O)/C=C/C(=O)O [osanetant fumaric acid Form 1] What is its recorded XRPD after drying at 40° C.?
no change

Consider the molecule shown here: CC(=O)N(C)C1(c2ccccc2)CCN(CCC[C@]2(c3ccc(Cl)c(Cl)c3)CCCN(C(=O)c3ccccc3)C2)CC1.O=P(O)(O)O [osanetant phosphoric acid Form 2] What is its recorded XRPD after drying at 40° C.?
Form 2

Origin of the recorded values: patent US20240336565A1
